The reported measurements were obtained from ChEMBL document CHEMBL1671822.

System Tested: Tyrosine-protein phosphatase non-receptor type 7 (Homo sapiens, UniProt P35236)
Sequence (P35236 whole entry): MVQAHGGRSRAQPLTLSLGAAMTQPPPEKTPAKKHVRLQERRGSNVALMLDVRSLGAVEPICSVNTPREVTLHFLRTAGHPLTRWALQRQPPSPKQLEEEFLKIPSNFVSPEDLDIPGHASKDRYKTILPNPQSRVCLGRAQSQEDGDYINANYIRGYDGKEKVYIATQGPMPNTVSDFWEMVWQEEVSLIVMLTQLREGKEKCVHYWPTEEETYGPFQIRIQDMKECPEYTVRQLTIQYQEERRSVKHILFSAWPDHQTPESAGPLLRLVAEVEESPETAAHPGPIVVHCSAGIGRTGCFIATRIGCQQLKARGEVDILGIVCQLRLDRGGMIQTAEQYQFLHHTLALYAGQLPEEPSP
Measurement Protocol: Competitive inhibition of recombinant HePTP expressed in Escherichia coli by Michaelis-Menten kinetic analysis
Observation Type: Ki (nM)
Report the figure in nM without appending any unit label.

Can you look up Ki on Tyrosine-protein phosphatase non-receptor type 7 (Homo sapiens, UniProt P35236) for CC1=C(C(=O)OC(C)C)C(c2ccc(Cl)cc2)n2c(s/c(=C\c3ccc(OCC(=O)O)cc3)c2=O)=N1 (stereo unspecified) ?
690

###

System Tested: Tyrosine-protein phosphatase non-receptor type 7 (Homo sapiens, UniProt P35236)
Sequence (P35236 whole entry): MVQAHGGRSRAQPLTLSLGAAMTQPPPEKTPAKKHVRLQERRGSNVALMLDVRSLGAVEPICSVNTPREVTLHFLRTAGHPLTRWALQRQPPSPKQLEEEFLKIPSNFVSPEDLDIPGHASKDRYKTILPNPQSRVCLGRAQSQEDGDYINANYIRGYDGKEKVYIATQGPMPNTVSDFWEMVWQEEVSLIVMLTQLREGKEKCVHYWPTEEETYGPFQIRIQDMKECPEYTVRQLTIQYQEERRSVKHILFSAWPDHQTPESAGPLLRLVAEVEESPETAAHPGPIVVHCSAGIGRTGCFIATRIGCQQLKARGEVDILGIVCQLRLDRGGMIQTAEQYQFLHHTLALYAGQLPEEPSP
Measurement Protocol: Inhibition of recombinant HePTP expressed in Escherichia coli
Observation Type: pIC50
Worth noting: pIC50 values are minus log10 of concentrations stated in mol/L.

{"columns": ["Compound", "pIC50"],
 "data": [
  ["CCOC(=O)C1=C(C)N=c2s/c(=C\\c3ccc(OCC(=O)O)cc3)c(=O)n2C1c1ccc(Cl)cc1 (stereo unspecified)", 5.89],
  ["CCOC(=O)C1=C(C)N=c2s/c(=C\\c3cc(C)c(OCC(=O)O)c(OC)c3)c(=O)n2C1c1ccccc1Cl (stereo unspecified)", 5.43],
  ["CCOC(=O)C1=C(C)N=c2s/c(=C\\c3ccc(OCC(=O)O)cc3)c(=O)n2C1c1cccc(OC)c1 (stereo unspecified)", 5.34],
  ["CC1=C(C(=O)OC(C)C)C(c2ccc(Cl)cc2)n2c(s/c(=C\\c3ccc(OCC(=O)O)cc3)c2=O)=N1 (stereo unspecified)", 6.00]
]}

We now examine a further compound.
Look up pIC50 for this compound: CCOC(=O)C1=C(C)N=c2s/c(=C\c3ccc(OCC(=O)O)cc3)c(=O)n2C1c1ccc(SC)cc1 (stereo unspecified)
5.74

###

System Tested: Dual specificity protein phosphatase 6 (Homo sapiens, UniProt Q16828)
Sequence (Q16828 whole entry): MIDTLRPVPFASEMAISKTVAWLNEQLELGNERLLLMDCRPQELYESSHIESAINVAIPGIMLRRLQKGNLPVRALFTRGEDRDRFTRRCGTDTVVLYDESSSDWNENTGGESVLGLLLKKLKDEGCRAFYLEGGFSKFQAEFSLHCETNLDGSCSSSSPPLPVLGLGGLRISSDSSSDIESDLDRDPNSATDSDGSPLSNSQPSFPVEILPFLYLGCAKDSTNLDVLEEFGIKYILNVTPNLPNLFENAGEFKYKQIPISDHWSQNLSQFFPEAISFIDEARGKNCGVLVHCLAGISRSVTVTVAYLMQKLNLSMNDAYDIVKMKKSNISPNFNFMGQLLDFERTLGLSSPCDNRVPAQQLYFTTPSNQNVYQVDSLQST
Measurement Protocol: Inhibition of recombinant MKP3 expressed in Escherichia coli
Observation Type: IC50 (µM)
Report the figure in µM without appending any unit label.

{"columns": ["Molecule", "Units Of Measure", "Value Measured"],
 "data": [
  ["CCOC(=O)C1=C(C)N=c2s/c(=C\\c3ccc(OCC(=O)O)cc3)c(=O)n2C1c1ccc(SC)cc1 (stereo unspecified)", "µM", 32]
]}

Look up IC50 for this molecule: CC1=C(C(=O)OC(C)C)C(c2ccc(Cl)cc2)n2c(s/c(=C\c3ccc(OCC(=O)O)cc3)c2=O)=N1 (stereo unspecified)
42

Also CCOC(=O)C1=C(C)N=c2s/c(=C\c3cc(C)c(OCC(=O)O)c(OC)c3)c(=O)n2C1c1ccccc1Cl (stereo unspecified) ?
39

Also CCOC(=O)C1=C(C)N=c2s/c(=C\c3ccc(OCC(=O)O)cc3)c(=O)n2C1c1cccc(OC)c1 (stereo unspecified) ?
50
